Every entry's value here was drawn from ChEMBL document CHEMBL1153117.

# Tested on: Leishmania donovani
# Experiment Description: Antileishmanial activity against Leishmania donovani promastigotes at 10 ug/mL
# Type: functional
inhibition at 10 µg/mL: recorded values
State the answer as a number, implicitly in %.

Guide cases for inhibition at 10 µg/mL, answers given:
Compound	Measured Result
CC(CCn1ccnc1)Oc1ccc([N+](=O)[O-])cc1 (stereo not drawn)	100
O=[N+]([O-])c1ccc(OC(COc2ccccc2)Cn2ccnc2)cc1 (stereo not drawn)	93.8
C[C@@H](Cn1ccnc1)[C@@H](Oc1ccccc1[N+](=O)[O-])c1ccccc1 (relative stereo)	95
CC(CCn1ccnc1)Oc1ccccc1[N+](=O)[O-] (stereo not drawn)	100
O=[N+]([O-])c1ccc(OC(CCn2ccnc2)c2ccccc2)c(F)c1 (stereo not drawn)	96.3
O=[N+]([O-])c1ccccc1OC(CCn1ccnc1)c1ccccc1 (stereo not drawn)	100
CC(CCn1ccnc1)Oc1ccc(C(F)(F)F)cc1 (stereo not drawn)	100

Field: next compound
Query: For the compound FC(F)(F)c1ccc(OC(COc2ccccc2)Cn2ccnc2)cc1 (stereo not drawn) , report inhibition at 10 µg/mL.
Response: 100
